Assay: chemical genetic growth profiling, strain panel (AID 1159580);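 note: tested at 20 µM; growth read once vehicle control cultures reached saturation at 30 °C; 1 = growth at the plate median or of vehicle wells; lower values mean less growth of the strain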
Settings: S. cerevisiae deletion strains, growth OD, locus YMR205C, strain PFK2, active compounds read low
Hit rate of the full screen: of about 5,500 compounds, about 2,000 (36%) were called active. Roughly 18% stayed inconclusive and do not appear here. The list shows a part of the results. *1 amine or outer side, *2 acyl side, *3 side chain or, on linkers, in order; H or OH if unused. Where a SMILES comes first, the peptide text is derived from it. Bridges are numbered along the chain shown (N, C = ends). [ ]: non-standard residue; d: D form. The star is where a group is joined. ξ: configuration not given here. ΔAla(E,3-NHCONH2) = NC(=O)N/C=C(/N)C(=O)O; X2 = NC1=NCCC(C(N[*:1])C(=O)[*:2])N1; ξβ3hOrn = NCCCC(N)CC(=O)*; Dap = NC[CH](N)C(=O)O
What normalized growth was measured for each of the following?

compound	normalized growth
NCCCC(N)CC(=O)NCC1NC(=O)C(CO)NC(=O)C(N)CNC(=O)C(C2CCN=C(N)N2)NC(=O)/C(=C\NC(N)=O)NC1=O (stereo not drawn) (H-[Dap]S[Dap](ξβ3hOrn)[ΔAla(E,3-NHCONH2)][X2]; lactam 1-C; configuration not given here)	1.04 (inactive)
O=C1c2ccccc2C(=O)C1c1ccccc1	1.01 (inactive)
CC(=O)NO	0.951 (inactive)
NC1C[C@H]1c1ccccc1 (stereo not given in full)	1.02 (inactive)

Exercise: Tell me the measured normalized growth of COc1cc(-c2coc3cc(O[C@@H]4O[C@H](CO)[C@@H](O)[C@H](O)[C@H]4O)c(OC)c(O)c3c2=O)cc(O)c1OC , please.
Key: 0.981 (inactive)

====

I'd appreciate it if you could supply normalized growth values for the items below.
Test: chemical genetic growth profiling, strain panel (AID 1159580);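 note: tested at 20 µM; growth read once vehicle control cultures reached saturation at 30 °C; 1 = growth at the plate median or of vehicle wells; lower values mean less growth of the strain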
Details: S. cerevisiae deletion strains, growth OD, locus YML120C, strain ndi1, active compounds read low
In all, about 5,500 compounds went through this assay and about 2,000 (36%) were called active. Another 18% or so got no clear call; they are omitted. Some of the results follow.

Consider the following illustrative entries.
> print(dat)
                                   molecule         value.type     result.value
1  CCCCCCCCCCCCCCCCCCOCC(O)CO (stereo not given)  normalized growth  1.01 (inactive)
2  Cc1onc(-c2c(Cl)cccc2Cl)c1C(=O)N[C@@H]1C(=O)N2[C@@H]1SC(C)(C)[C@@H]2C(=O)O  normalized growth  0.99 (inactive)
3  C=C(C)[C@@H]1CC[C@]2(CO)CC[C@]3(C)[C@H](CCC4[C@@]5(C)CC[C@H](O)C(C)(C)C5CC[C@]43C)C12 (stereo not given in full)  normalized growth     1 (inactive)

Provide each entry's normalized growth from the list below.
1. CN1C(=O)CCS(=O)(=O)C1c1ccc(Cl)cc1 (stereo not given)
2. CCc1cccc2c3c([nH]c12)C(CC)(CC(=O)O)OCC3 (stereo not given)

Key:
1: 0.948 (inactive); 2: 0.977 (inactive)

====

Assay: chemical genetic growth profiling, strain panel (AID 1159580);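 note: tested at 20 µM; growth read once vehicle control cultures reached saturation at 30 °C; 1 = growth at the plate median or of vehicle wells; lower values mean less growth of the strain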
Details: S. cerevisiae deletion strains, growth OD, locus YLR370C, strain arc18, active compounds read low
The whole screen tested about 5,500 compounds, of which about 2,000 (36%) were called active. Another 18% or so got no clear call; they are omitted. The list shows a part of the results.
value-type: normalized growth
One number for each entry.

Some entries whose results are on file:
compound	normalized growth
O=C(O)c1cc(=O)c2c(Cl)cc(Cl)cc2[nH]1	1.02
NC[C@H]1O[C@H](O[C@H]2C(O[C@@H]3O[C@H](CO)[C@@H](O)[C@H]3O)[C@@H](O)[C@H](N)C[C@@H]2N)[C@H](N)[C@@H](O)[C@@H]1O (stereo partly drawn)	0.998

// moving on: another record for normalized growth
Exercise: Which measured normalized growth value corresponds to CN[C@@H]1[C@@H](O[C@H]2O[C@H](CO)[C@@H](N)[C@H](O)[C@H]2O)O[C@H]2C[C@@H](N)[C@H](O[C@H]3[C@H](O)[C@@H](O)[C@H](N)C[C@@H]3N)O[C@@H]2[C@@H]1O ?
Key: 1.01
